Species on record: Rattus norvegicus
Assay: Open TG-GATES - Regimen: Single
Format: toxicity, organism-based, Sprague-Dawley
Set-up: regimen Single, gender Male, age 6 weeks
Settings: in vivo, po, 100 mg/kg, 24 h, tissue Blood, route gavage, dose level Low
Measurement name: PT (s)
I only need the number, in s, no unit after it.

# PT lookup, item COC(=O)C1=C(C)NC(C)=C(C(=O)OC)C1c1ccccc1[N+](=O)[O-]
13.9

CNC(=C[N+](=O)[O-])NCCSCc1ccc(CN(C)C)o1 , same question.
12

Further, for Cc1nnc2n1-c1ccc(Cl)cc1C(c1ccccc1Cl)=NC2 ?
13.4

Try CN/C(=N/CCSCc1nc[nH]c1C)NC#N next.
12.8

Lookup O=C(OC[C@H]1O[C@@H](OC(=O)c2cc(O)c(O)c(OC(=O)c3cc(O)c(O)c(O)c3)c2)[C@H](OC(=O)c2cc(O)c(O)c(OC(=O)c3cc(O)c(O)c(O)c3)c2)[C@@H](OC(=O)c2cc(O)c(O)c(OC(=O)c3cc(O)c(O)c(O)c3)c2)[C@@H]1OC(=O)c1cc(O)c(O)c(OC(=O)c2cc(O)c(O)c(O)c2)c1)c1cc(O)c(O)c(OC(=O)c2cc(O)c(O)c(O)c2)c1
11.7

---

Organism: Rattus norvegicus
Test: Open TG-GATES - Regimen: Single
Format: toxicity, organism-based, Sprague-Dawley
Parameters: regimen Single, gender Male, age 6 weeks
Conditions: in vivo, po, 100 mg/kg, 9 h, tissue Blood, route gavage, dose level Low
Lab note: anything with Ret below 9% is marked yes (1); values at 9% or higher are marked no (0).

Worked cases, answers included:
Molecule smiles	Assigned label
CN/C(=N/CCSCc1nc[nH]c1C)NC#N	yes (1)
COC(=O)C1=C(C)NC(C)=C(C(=O)OC)C1c1ccccc1[N+](=O)[O-]	no (0)
CNC(=C[N+](=O)[O-])NCCSCc1ccc(CN(C)C)o1	yes (1)

Here's an entry: Cc1nnc2n1-c1ccc(Cl)cc1C(c1ccccc1Cl)=NC2 . Is its Ret below 9%?
no (0)

Same again, this time with O=C(OC[C@H]1O[C@@H](OC(=O)c2cc(O)c(O)c(OC(=O)c3cc(O)c(O)c(O)c3)c2)[C@H](OC(=O)c2cc(O)c(O)c(OC(=O)c3cc(O)c(O)c(O)c3)c2)[C@@H](OC(=O)c2cc(O)c(O)c(OC(=O)c3cc(O)c(O)c(O)c3)c2)[C@@H]1OC(=O)c1cc(O)c(O)c(OC(=O)c2cc(O)c(O)c(O)c2)c1)c1cc(O)c(O)c(OC(=O)c2cc(O)c(O)c(O)c2)c1
no (0)

---

Let's look at some compounds and their measured TBIL.
Species on record: Rattus norvegicus
Experiment: Open TG-GATES - Regimen: Single
Format: toxicity, organism-based, Sprague-Dawley
Parameters: regimen Single, gender Male, age 6 weeks
Conditions: in vivo, po, 0 mg/kg, 3 h, tissue Plasma, route gavage, dose level Control
Use mg/dL as the unit, but write only the number.

Compound	TBIL / mg/dL
O=C(OC[C@H]1O[C@@H](OC(=O)c2cc(O)c(O)c(OC(=O)c3cc(O)c(O)c(O)c3)c2)[C@H](OC(=O)c2cc(O)c(O)c(OC(=O)c3cc(O)c(O)c(O)c3)c2)[C@@H](OC(=O)c2cc(O)c(O)c(OC(=O)c3cc(O)c(O)c(O)c3)c2)[C@@H]1OC(=O)c1cc(O)c(O)c(OC(=O)c2cc(O)c(O)c(O)c2)c1)c1cc(O)c(O)c(OC(=O)c2cc(O)c(O)c(O)c2)c1 [TANNIC ACID]	0.5

# get_value(readout='TBIL', item= COC(=O)C1=C(C)NC(C)=C(C(=O)OC)C1c1ccccc1[N+](=O)[O-] [NIFEDIPINE] )
0.044

Each recorded value in this set is attributed to ChEMBL document CHEMBL3885861.
